# cell viability values compiled below
# Test system: SEM cells
# measurement_description: cell viability relative to DMSO control; higher = less cytotoxic
# assay_context: RPMI 5 mM glucose + 10% dialyzed FBS; 48 h; 0.0211 µM
endpoint: cell viability (%)

CC(C)(C)OC(=O)Nc1ccc(-c2cc(C(=O)NCCCCCCC(=O)NO)no2)cc1 ... 88.9
CC(C)(C)C1=CC(=C(NC(=O)C/2=C/NC3=C(C=CC=C3)C2=O)C=C1O)C(C)(C)C ... 99.9
C1COC(NC(C2CC2)C2CC2)=N1 ... 75.7
COC(=O)Nc1nc2ccc([S+]([O-])c3ccccc3)cc2[nH]1 (stereo unspecified) ... 111
CCCCCN(CCC12CC3CC(CC(C3)C1)C2)C(=O)NCCCc1ccncc1 ... 110
CO[C@@H]1[C@@H](O)[C@H](O)[C@@H](n2c3c(Cl)cccc3c3c4c(c5c6cccc(Cl)c6[nH]c5c32)C(=O)NC4=O)O[C@H]1CO ... 100
O=C(O)Cc1cccc(OCCCN(Cc2cccc(C(F)(F)F)c2Cl)CC(c2ccccc2)c2ccccc2)c1 ... 135
NC[C@H]1O[C@H](O[C@H]2[C@H](O)[C@@H](O[C@H]3O[C@H](CO)[C@@H](O)[C@H](N)[C@H]3O)[C@H](N)C[C@@H]2N)[C@H](N)C[C@@H]1O ... 116
N#CC[C@H](C1CCCC1)n1cc(-c2ncnc3[nH]ccc23)cn1 ... 97.9
CN(C)CCc1c[nH]c2ccc(C[S+](=O)([O-])N3CCCC3)cc12 ... 98.4
COc1ccc([S+](=O)([O-])Nc2cccnc2Nc2ccc(O)cc2)cc1 ... 105
Nc1nc(N)c(N=O)c(OCC2CCCCC2)n1 ... 86.8
CC(C)n1cnc2c(NCCc3ccc(O)cc3)nc(-c3csc4ccccc34)nc21 ... 110
CC(S)C(=O)NCC(=O)O (stereo unspecified) ... 101
COc1cc2ncn(-c3cc(OCc4ccccc4C(F)(F)F)c(C(N)=O)s3)c2cc1OC ... 120
COC(=O)[C@H](c1ccccc1Cl)N1CCc2sccc2C1 ... 108
C[C@H](Cc1ccc(O)c(O)c1)[C@@H](C)Cc1ccc(O)c(O)c1 ... 128
CCN(CC)CCCC(C)Nc1nc(C)cc(Nc2ccc3nc(C)cc(N)c3c2)n1 (stereo unspecified) ... 107
OC[C@H]1OC(OC2=CC3=C(C(=C2)O)C(=O)\C(=C/O3)C4=CC=C(O)C=C4)[C@H](O)[C@@H](O)[C@@H]1O (stereo partly specified) ... 94.7
Nc1ccc([S+](=O)([O-])Nc2ncccn2)cc1 ... 74.4
CCOC(=O)N[C@@H]1CC[C@@H]2[C@@H](C1)C[C@H]1C(=O)O[C@H](C)[C@H]1[C@H]2/C=C/c1ccc(-c2cccc(F)c2)cn1 ... 112
CCOCC(O)COc1ccc(NC(=O)CC[S+](C)C)cc1 (stereo unspecified) ... 73.5
CN1CCC(CC1)=C2C3=C(C=CC=C3)\C=C/C4=C2C=CC=C4 ... 117
Nc1ccn([C@H]2CS[C@@H](CO)O2)c(=O)n1 ... 134
COc1ccc2[nH]cc(CCNC(C)=O)c2c1 ... 144
CN(C)CCOc1ccc(/C(=C(/CCCl)c2ccccc2)c2ccccc2)cc1 ... 102

Reference source: the supplement of paper PMC11451515
